systemName: RSV F on recombinant mKate-RSV B 18537 virus (Respiratory syncytial virus B 18537, UniProt P13843 26-574)
Sequence (P13843 26-574): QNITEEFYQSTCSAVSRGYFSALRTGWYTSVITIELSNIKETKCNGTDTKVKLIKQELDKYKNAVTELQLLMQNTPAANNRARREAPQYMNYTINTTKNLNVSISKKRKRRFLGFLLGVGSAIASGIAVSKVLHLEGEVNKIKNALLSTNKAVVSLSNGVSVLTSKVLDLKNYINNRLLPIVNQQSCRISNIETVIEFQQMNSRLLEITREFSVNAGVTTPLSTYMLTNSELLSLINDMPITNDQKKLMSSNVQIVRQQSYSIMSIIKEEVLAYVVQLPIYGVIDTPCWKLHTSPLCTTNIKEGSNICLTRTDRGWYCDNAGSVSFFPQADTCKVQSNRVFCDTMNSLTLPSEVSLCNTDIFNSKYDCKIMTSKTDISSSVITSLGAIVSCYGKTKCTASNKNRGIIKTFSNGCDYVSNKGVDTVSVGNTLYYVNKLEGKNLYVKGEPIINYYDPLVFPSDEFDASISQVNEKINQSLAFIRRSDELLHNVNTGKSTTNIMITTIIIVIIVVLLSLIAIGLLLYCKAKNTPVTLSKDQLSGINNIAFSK
assayInfo: cell-based or functional assay
Neut IC50 (ug/ml) subtype B below 0.3 µg/mL gives class 0; Neut IC50 (ug/ml) subtype B at or above it gives class 1.

Answered cases to consult:
ADI-21086 (antibody, V domains shown) VH: EVQLVETGGGLVKPGGSLRLSCAASPFAFSNYYMSWIRQAPGKGLEWISNISGGSTFTNYADSVKGRFTISRDNARNSLYLLMNNLRTEDTAVYYCAREASVAAGTPEGFDVWGQGTTVTVSS VL: QSVVTQPPSVSGAPGQRVTISCTGSSSNIGAGYDVNWYQQFPGTAPKLLIYGNRNRPSGVPARFSGSKSGASASLAITGLQAEDEADYYCHSYDSGLSGSVFGGGTKLTVL	class 1
ADI-21091 (antibody, V domains shown) VH: QVQLVQSGAEVKKPGESLRISCQYSAYGFSTYWISWVRQLPGKGLEWMGRIDPSDSHTTYSPSFQGHVTLSADKSISTVYLQWSSLKASDTAMYYCARHQEYSGSDLDSWGQGTLVTVSS VL: QPVLTQPPSVSAAPGQRVTISCSGTRSNIGYNFVSWYQQLPGTAPKLLIYDNNKRPSGIPDRFSGSKSGTSATLAITGLQTGDEADYYCGTWDSSLSALFGGGTKVTVL	class 1
ADI-21069 (antibody, V domains shown) VH: EVQLVESGAEVRKPGASVKVSCKASGYTFSSNAISWVRQAPGQGLEWMGYISVFNGNTKYAQNLQGRVTMTTDTATSTVYMELRSLRYDDTAIYYCARESLGMGGFYFDHWGQGTLVTVSS VL: SYELTQPPSVSVAPGQTARITCGANNIGSDSVHWYQQKPGQAPVLVVFDDRDRPSGIPERFSGSNSGNTATLTISRVEAGDEADYYCQVWMTSDRSVFGGGTKLTVL	class 0
ADI-21083 (antibody, V domains shown) VH: QVQLQESGPGLVKPSGTLSLTCAVSGDSITTSNWWSWVRQPPGKGLEWIGEIYHSGVTRYNPSLKSRLSISLDKSRNQFSLKLSSVTAADTAVYYCARDEALFGHWFDPWGQGTLVTVSS VL: QSVLTQPRSVSGSPGQSVTISCTGSSSDIGSYNYVSWYQQHPGKAPKLMLYDVSKRPSGVPDRFSGSKSVKTASLTISGLQAEDEADYYCCTYAGNSVVFGGGTKLTVL	class 1
ADI-21079 (antibody, V domains shown) VH: EVQLLESGGGLVKPGGSLRLSCAASGFTFSDYYMSWIRQAPGKGLEWVSNISGGSTYTNYADSVKGRFTISRDNAKNSLYLQMNSLRAEDTAVYYCAREAYGSGNYYNPNWLDPWGQGTLVTVSS VL: QSVLTQPPSVSGAPGQRVTISCTGSSSNIGAGYDVHWYQQLPGTAPKLLIYGNRNRPSGVPDRFSGSKSGTSASLAITGLQAEDEADYYCQSYDSSLSGSVFGGGTKLTVL	class 0
ADI-21077 (antibody, V domains shown) VH: QVQLVESGGGLVKPGGSLRLSCVVSGFTFRDYYMSWIRQAPGKGLEWISYISPSSTYTNYADSVRGRFTISRDNAENSLYLQMNSLRAEDTAVYYCARVNIAATGAGGVFLDYWGQGTTVTVSS VL: QPVLTQPPSVSGAPGQRVTISCAGSSSNIGAGYDVHWYQQLPGTAPKLLIYGNINRPSGVPDRFSGSKSGTSASLAITGLQAEDEADYYCQSYDSSLSGSYVFGTGTKVTVL	class 0
ADI-21073 (antibody, V domains shown) VH: EVQLVESGGGLVRPGRSLRLSCAASGFTFSMFSMNWVRQAPGKGLEWLAYIGGSGSTIDYANSVSGRFTISRDNAKNSLYLQMNSLRDEDTAVYYCARIGLQTYNSHSSSSSPARAFDVWGQGTTVTVSS VL: DIVLTQSPSSLSASVGDRVTITCRASQSIGRFLNWYQQKPGKAPKLLIYAASSLESGVPSRFSGSGSGTQFSLTISSLQPEDFTTYYCQQSYSTPTTFGGGTKVDIK	class 1
ADI-21075 (antibody, V domains shown, also called Ab 320) VH: EVQLVESGGGLVKPGGSLRLSCAASGFSFSNYYMSWVRQAPGKGLEWISYISGGSTYANLADSVKGRFTISRDNTKNSMYLQMTSLRPDDTAVYYCARIHGTHGPFYFDYWGQGTLVTVSS VL: QSVLTQPPSVSGAPGQRVTISCTGSSSNIGAGYDVHWYQQLPGTAPKLLIHANSNRPSGVPDRFSGSKSGTSASLAITGLQAEDEADYYCQSYDNSLNAYYVFGTGTKLTVL	class 1

Proceed to the following item.
State whether the measured Neut IC50 (ug/ml) subtype B reaches 0.3 µg/mL, counting equality as reaching it, for ADI-21089 (antibody, V domains shown) VH: EVQLLESGGGLVKPGGSLRLSCVASGFRFTSYSMNWVRQAPGKGLEWVSSISASSSYVDYADSLKGRFTISRDNAQNSLFLQMNSLRAEDTAVYYCARDYYDSGNYHSPFPMDVWGQGTTVTVSS VL: QSVLTQPPSVSGAPGQRVTISCTGSRSNIGAGYDVHWYQQLPGTAPKLLIYGNNKRPSGVPDRFSGSKSGTSASLAITGLQAEDEADYYCQSYDSGPIFGGGTKVTVL class 0
